assay.target: T1, SCRIB PDZ domain 3 (human, UniProt Q14160 1004-1093)
T1 construct: also called SCRIB-3
T1 sequence (looked up): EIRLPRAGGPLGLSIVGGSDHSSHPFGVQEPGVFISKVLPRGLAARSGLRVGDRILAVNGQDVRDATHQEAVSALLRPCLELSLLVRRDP
experiment.summary: ELISA; competition ELISA as described in ref. 20: synthetic peptide in solution blocks PDZ domain binding to immobilized peptide; IC50 = peptide concentration that blocked 50% of binding; no detectable interaction = IC50 > 500 μM
condition.details: both partners purified
Where no end group is shown, it is not given here.
outcome.measure: IC50

RQIKIWFQNRRMKWKKRSWFEAWA (not fully specified (C-terminus)) [designed nonbinding peptide Π–RSWFEAWA (peptide 15)] | > 500 µM

Values compiled from paper PMC2553845.
